Recorded %Inh by entry
- Test system: PLK1
- Condition: concentration: 1 μM, replicates: in singlicate; n = 1
Please respond with the number in % and leave the unit unwritten.

The following molecules have reported results that may help.
1. CSc1ccc(-c2nc3n(c2-c2ccncc2)CCC3)cc1 : 1
2. O=C1NC(=O)C(c2ccc(Cl)cc2)=C1Nc1cccc(Cl)c1 : 4
3. CC(=O)c1c(C)c2cnc(Nc3ccc(N4CCNCC4)cn3)nc2n(C2CCCC2)c1=O : 0
4. O=C(Nc1n[nH]c2cc(-c3ccsc3)ccc12)C1CC1 : 2
5. Fc1ccc(-c2nn3cccc(F)c3c2-c2ccncc2)cc1 : 9

IN: What %Inh value was documented for this molecule, COC(=O)C(NC(=O)NC1CCN(c2ccnc(Nc3ccc(F)cc3)n2)C1)c1ccccc1 (centres unmarked) ?
OUT: 13

IN: What %Inh value was documented for this molecule, "Cc1c(Cn2c(C)c(C)n3c(=O)cc(N4CCOCC4)nc23)cccc1C(F)(F)F" ?
OUT: 0

----------
- Tested on: STK35
- Condition: concentration: 1 μM, replicates: in singlicate; n = 1
Property: %Inh (%)
Please respond with the number in % and leave the unit unwritten.

1) COc1nccc(-c2c(-c3ccc(F)cc3)ncn2CCCN2CCOCC2)n1 : 0
2) CN1c2ccc(-c3ccc(C(N)=O)cc3)cc2-c2[nH]ncc2S1(=O)=O : 12
3) CCCCc1nn2ncccc2c1-c1ccnc(NC2CC2)n1 : 0
4) FC(F)(F)c1ccccc1-c1cc(-c2c[nH]nc2-c2ccccn2)ccn1 : 0
5) COc1ccc(Nc2nccc(N3CCC(NC(=O)C(C)c4ccc(Cl)cc4)C3)n2)cc1 (centres unmarked) : 7
6) c1ccc(-c2ccnc3[nH]ccc23)cc1 : 32
7) Fc1ccc(-c2nn3cccc(F)c3c2-c2ccncc2)cc1 : 0

Alright, here's another molecule for you.
IN: What %Inh value was documented for this molecule, COc1ccc(Nc2nccc(N3CCC(NC(=O)c4cc5ccccc5s4)C3)n2)cc1 (centres unmarked) ?
OUT: 0

----------
- System: ABL2
- Condition: concentration: 1 μM, replicates: in singlicate; n = 1
Recorded %Inh by entry
Please respond with the number in % and leave the unit unwritten.

IN: What %Inh value was documented for this compound, "Fc1ccc(-c2nc3n(c2-c2ccncc2)CCS3)cc1" ?
OUT: 9

----------
- Tested on: PRKD3
- Condition: concentration: 1 μM, replicates: in singlicate; n = 1
Property: %Inh (%)
Please respond with the number in % and leave the unit unwritten.

The following compounds have reported results that may help.
1) COC(=O)C(Cc1ccccc1)NC(=O)NC1CCN(c2ccnc(Nc3ccc(F)cc3)n2)C1 (stereo not shown) [GSK1379714] : 100
2) COc1ccc(Nc2nccc(-c3ccc(NC(=O)c4cc5cc(F)ccc5[nH]4)cc3)n2)cc1 [GSK1229496] : 100
3) COc1ccc(CSc2nnc(-c3ccc4ncsc4c3)o2)cc1C(F)(F)F : 11
4) COc1ccc(CSc2nnc(-c3ccc4c(c3)CCO4)o2)cc1 : 0
5) NS(=O)(=O)c1cccc(N/C=C2\C(=O)Nc3ccc(S(=O)(=O)Cc4c(Cl)cccc4Cl)cc32)c1 [GSK398099] : 17

IN: What %Inh value was documented for this compound, Cn1cncc1C(=O)NC1CCN(c2ccnc(Nc3ccc(F)cc3)n2)C1 (stereo not shown) [GSK1379717] ?
OUT: 4

IN: What %Inh value was documented for this compound, COC(=O)c1cccc(NC(=O)NC2CCN(c3ccnc(Nc4ccc(OC)cc4)n3)C2)c1 (stereo not shown) [GSK1379746] ?
OUT: 0

----------
BUB1 data, read-out Kd
Please respond with the number in nM and leave the unit unwritten.

The following molecules have reported results that may help.
1. Fc1ccc(-c2nc[nH]c2-c2ccncc2)cc1 : 890
2. CS(=O)(=O)Cc1ccc(Nc2nccc(-c3c(-c4cccc(NC(=O)C5CCCCC5)c4)nn4ncccc34)n2)cc1 : 29
3. CCCCc1nn2ncccc2c1-c1ccnc(NC2CC2)n1 : 3300

IN: Fill in the recorded Kd for this molecule, with BUB1 as test system: "COc1ccc2cc(-c3nc(-c4ccccc4C(C)C)[nH]c3-c3ccncc3)ccc2c1"
OUT: 470

----------
- System: BUB1
- Condition: concentration: 1 μM, replicates: in singlicate; n = 1
Recorded %Inh by entry
Please respond with the number in % and leave the unit unwritten.

1. Cc1ccc(-c2nc(Nc3ccncc3)c3ccccc3n2)s1 : 34
2. COc1ccc(CSc2nnc(-c3ccc4nccn4c3)o2)cc1C(F)(F)F : 0
3. COc1ccc(Nc2nccc(-c3ccc(NC(=O)c4cc5cc(F)ccc5[nH]4)cc3)n2)cc1 : 29
4. Cn1cncc1C(=O)NC1CCN(c2ccnc(Nc3ccc(F)cc3)n2)C1 (stereo not shown) : 32
5. COC(=O)c1cccc(NC(=O)NC2CCN(c3ccnc(Nc4ccc(F)cc4)n3)C2)c1 (stereo not shown) : 0
6. COC(=O)c1cccc(NC(=O)NC2CCN(c3ccnc(Nc4ccc(OC)cc4)n3)C2)c1 (stereo not shown) : 75

IN: What %Inh value was documented for this molecule, "COc1ccc(-c2coc3ccc(-c4nnc(C)o4)cc23)cc1" ?
OUT: 0

IN: What %Inh value was documented for this molecule, "COc1cccc(NC(=O)Nc2ccc(C)c(-c3ccc(C(=O)Nc4ccncc4)cc3)c2)c1" ?
OUT: 0

IN: What %Inh value was documented for this molecule, "CC(C)c1cc(-c2ccc3c(N)n[nH]c3c2)nc(N)n1" ?
OUT: 60

IN: What %Inh value was documented for this molecule, "COc1ccc(CSc2nnc(-c3ccc4c(c3)CCO4)o2)cc1" ?
OUT: 0

IN: What %Inh value was documented for this molecule, "CCCCc1nn2ncccc2c1-c1ccnc(NC2CC2)n1" ?
OUT: 91.3

IN: What %Inh value was documented for this molecule, "O=C1NC(=O)C(c2ccc(Cl)cc2)=C1Nc1ccc(O)cc1" ?
OUT: 0

IN: What %Inh value was documented for this molecule, "Nc1ncnc2occ(-c3ccc4c(c3)CCN4C(=O)Cc3cc(F)ccc3F)c12" ?
OUT: 0

----------
Recorded %Inh by entry
- Test system: CDK5
- Condition: concentration: 1 μM, replicates: in singlicate; n = 1
Please respond with the number in % and leave the unit unwritten.

The following compounds have reported results that may help.
1. O=c1cc(N2CCOCC2)nc2n(Cc3ccccc3F)ccn12 : 0
2. COC(=O)C(NC(=O)NC1CCN(c2ccnc(Nc3ccc(F)cc3)n2)C1)c1ccccc1 (stereo not drawn) : 1
3. COc1ccc(Nc2nccc(NCCNC(=O)Nc3cc(C)ccc3C)n2)cc1 : 0

IN: Fill in the recorded %Inh for this compound, with CDK5 as test system: "CNc1cc(-c2ccc3c(N)n[nH]c3c2)nc(N)n1"
OUT: 0

IN: Fill in the recorded %Inh for this compound, with CDK5 as test system: "CS(=O)(=O)CCNCc1nc(-c2ccc3ncnc(Nc4ccc(OCc5ccccc5)c(Cl)c4)c3c2)cs1.Cl"
OUT: 0

IN: Fill in the recorded %Inh for this compound, with CDK5 as test system: "Cc1ccc(-c2nc(Nc3ccncc3)c3ccccc3n2)s1"
OUT: 100

----------
Recorded %Inh by entry
- System: EPHB1
- Condition: concentration: 1 μM, replicates: in singlicate; n = 1
Please respond with the number in % and leave the unit unwritten.

1. CCn1c(-c2ccccc2)nc2cnccc21 [SB-733416] : 7
2. O=C(Nc1n[nH]c2nc(-c3cccs3)c(Br)cc12)C1CCCC1 [SB-743341] : 0
3. CC(=O)c1cccc(NC(=O)NC2CCN(c3ccnc(Nc4ccc(F)cc4)n3)C2)c1 (centres unmarked) [GSK1379710] : 8
4. Cc1ccccc1-c1cc(-c2c[nH]nc2-c2ccccn2)ccn1 [GW680061] : 0
5. Cc1ccc(NC(=O)Nc2ccc(Cl)cc2)cc1-c1ccc(C(=O)Nc2ccncc2)cc1 [GSK1398472] : 16

IN: What %Inh value was documented for this molecule, FC(F)(F)c1ccccc1-c1cc(-c2c[nH]nc2-c2ccccn2)ccn1 [GW679396] ?
OUT: 24

IN: What %Inh value was documented for this molecule, "COc1ccc(-c2coc3ccc(-c4nnc(C)o4)cc23)cc1" ?
OUT: 0

IN: What %Inh value was documented for this molecule, Cl.Cl.Cl.N#Cc1ccc(CCNc2nccc(-c3cccc(CN4CCNCC4)c3)n2)cc1 [GSK2137462] ?
OUT: 18

----------
- Tested on: ACVR2B
- Condition: concentration: 1 μM, replicates: in singlicate; n = 1
Recorded %Inh by entry
Please respond with the number in % and leave the unit unwritten.

The following compounds have reported results that may help.
1. Cc1nccc(-c2c(-c3ccc(F)cc3)ncn2CCCN2CCOCC2)n1.Cl [SB-282975] : 7
2. CNc1cc(-c2ccc3c(N)n[nH]c3c2)nc(N)n1 [GSK2224810] : 56

Alright, here's another compound for you.
IN: Fill in the recorded %Inh for this compound, with ACVR2B as test system: "CCc1ccc(-c2ccc3c(c2)-c2n[nH]cc2S(=O)(=O)N3C)cc1"
OUT: 22
